assay: RPMI8226 myeloma cell viability, profiling panel, resazurin fluorescence, basal, 24 h, PK04 Diversity Set (AID 1180); details: higher = more signal;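 further: RPMI8826 multiple myeloma cell line at 5000 cells per well; test concentration not given here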
reported-metric: z-score
One number for each entry.

Known z-score results, listed for orientation:
Looking up CN1C2C=C(c3ccc(CO)cc3)C(C3C(=O)N(C(N)=O)C(=O)C32)C1C1CC1 (configuration not stated) , I see its z-score listed as -0.641

Looking up COC(=O)[C@@]1(Cc2ccc(F)cc2)[C@H]2c3cc(C(=O)N4CCCC4)n(Cc4ccc(C(F)(F)F)nc4)c3C[C@H]2CN1C(=O)c1ccccc1 , I see its z-score listed as -1.11

Looking up CN1C(=O)C2C(C1=O)C1C=C(CCCO)C2C(C2CC2)N1C (configuration not stated) , I see its z-score listed as -0.965

Looking up COc1cccc(C)c1NC(=O)O[C@H]1[C@H](OC(=O)Nc2ccc3c(c2)OCO3)[C@H](OC(=O)Nc2ccc3c(c2)OCO3)[C@@H](OC)O[C@@H]1CO , I see its z-score listed as -0.708

Looking up COc1ccc(C(=O)Nc2ccc(CN3C(=O)[C@]4(O[C@H](CC(=O)N(CCO)Cc5ccccc5)[C@@H]([Si](C)(C)c5ccc(OC)cc5)[C@@H]4C)c4ccccc43)cc2)cc1 , I see its z-score listed as -1.84

Looking up COC(=O)[C@H]1N=C(c2ccc(OCCCO)cc2)O[C@H]1c1ccccc1N=[N+]=[N-] , I see its z-score listed as 0.464

Then there is this compound:
Looking up O=C1O[C@@H](c2ccccc2)[C@@H](c2ccccc2)N2[C@@H](c3ccccc3OCCO)[C@]3(C(=O)Nc4ccc(C#CC5(O)CCCCCC5)cc43)[C@@H](C(=O)N3CCCCCCC3)[C@H]12 , I see its z-score listed as -0.186
